# Test system: U-251
# ASSAY_METHOD_TEXT: Antiproliferative activity against human U251 cells assessed as cell growth at 10^-8 M after 48 hrs by sulforhodamine B assay
# Type: functional
# ASSAY_SETUP: U-251, 48 h, read-out: Activity
TEST_READOUT: growth at 0.01 µM (%)

1) CNC(=O)c1cc(Oc2ccc3nc(NC(=O)c4cc(C(F)(F)F)cc(C(F)(F)F)c4)sc3c2)ccn1: 98
2) CNC(=O)c1cc(Oc2ccc3nc(NC(=O)Nc4cc(C(F)(F)F)cc(C(F)(F)F)c4)sc3c2)ccn1: 103
3) CNC(=O)c1cc(Oc2ccc3nc(NC(=O)Nc4ccc(Cl)c(Cl)c4)sc3c2)ccn1: 98
4) CNC(=O)c1cc(Oc2ccc3nc(NC(=O)Nc4ccc(Cl)c(C(F)(F)F)c4)sc3c2)ccn1: 102

----------
# Tested on: SK-MEL-28
# ASSAY_METHOD_TEXT: Antiproliferative activity against human SK-MEL-28 cells assessed as growth inhibition after 48 hrs by sulforhodamine B assay
# Type: functional
# ASSAY_SETUP: SK-MEL-28, 48 h
TEST_READOUT: TGI

1) CNC(=O)c1cc(Oc2ccc(NC(=O)Nc3ccc(Cl)c(C(F)(F)F)c3)cc2)ccn1 [SORAFENIB]: 7.94 µM
2) CNC(=O)c1cc(Oc2ccc3nc(NC(=O)Nc4ccc(Cl)c(Cl)c4)sc3c2)ccn1: 3.56 µM
3) CNC(=O)c1cc(Oc2ccc3nc(NC(=O)c4cc(C(F)(F)F)cc(C(F)(F)F)c4)sc3c2)ccn1: 43.7 µM
4) CNC(=O)c1cc(Oc2ccc3nc(NC(=O)Nc4cc(C(F)(F)F)cc(C(F)(F)F)c4)sc3c2)ccn1: 2.93 µM

----------
# Tested on: Malme-3M
# ASSAY_METHOD_TEXT: Antiproliferative activity against human MALME-3M cells assessed as growth inhibition after 48 hrs by sulforhodamine B assay
# Format: functional
# ASSAY_SETUP: read-out: LC50 (the source's name)
TEST_READOUT: CC50 (µM)

1) CNC(=O)c1cc(Oc2ccc(NC(=O)Nc3ccc(Cl)c(C(F)(F)F)c3)cc2)ccn1: 63.1
2) CNC(=O)c1cc(Oc2ccc3nc(NC(=O)Nc4ccc(Cl)c(Cl)c4)sc3c2)ccn1: 7.21
3) CNC(=O)c1cc(Oc2ccc3nc(NC(=O)Nc4cc(C(F)(F)F)cc(C(F)(F)F)c4)sc3c2)ccn1: 6.41

----------
# ASSAY_METHOD_TEXT: Antiproliferative activity against human OVCAR3 cells assessed as cell growth at 10^-6 M after 48 hrs by sulforhodamine B assay
# Type: functional
# ASSAY_SETUP: OVCAR-3, 48 h, read-out: Activity
TEST_READOUT: growth at 1 µM (%)

1. CNC(=O)c1cc(Oc2ccc3nc(NC(=O)Nc4cc(C(F)(F)F)cc(C(F)(F)F)c4)sc3c2)ccn1: 52
2. CNC(=O)c1cc(Oc2ccc3nc(NC(=O)Nc4ccc(Cl)c(C(F)(F)F)c4)sc3c2)ccn1: 108
3. CNC(=O)c1cc(Oc2ccc3nc(NC(=O)c4cc(C(F)(F)F)cc(C(F)(F)F)c4)sc3c2)ccn1: 90
4. CNC(=O)c1cc(Oc2ccc3nc(NC(=O)Nc4ccc(Cl)c(Cl)c4)sc3c2)ccn1: 99
